Measured EC50 by item
target: CHOK1 cells engineered to overexpress human CCR2 (Homo sapiens); construct: expressed in transfected cells; host or cells: CHOK1; assay: Antibody dependent cellular cytotoxicity (ADCC) reporter assay (Example 199); type: cell-based; conditions: with anti-cotinine antibody (SEQ ID NO: 11/12); Jurkat FcγRIIIa NFAT-luciferase reporter cells; 12-18 hours; EC50 in molar; average or individual runs; read-out: ADCC Reporter Assay pEC50 (converted)
QUANTITY MEASURED: EC50 (nM)

CC(C)N(C)[C@@H]1CC[C@H](N2CC[C@H](Nc3ncnc4ccc(C(F)(F)F)cc34)C2=O)[C@H](NC(=O)CCOCCOCCOCCOCCOCCNC(=O)[C@H]2CC(=O)N(C)[C@@H]2c2cccnc2)C1 [Example 40]; 6.31
CC(C)N(C)[C@@H]1CC[C@H](N2CC[C@H](Nc3ncnc4ccc(C(F)(F)F)cc34)C2=O)[C@H](NC(=O)C2CCC(N3CCC(S(=O)(=O)NCCCCCCNC(=O)[C@H]4CC(=O)N(C)[C@@H]4c4cccnc4)CC3)CC2)C1 (single isomer, unassigned) [Example 149]; 0.251
CN1C(=O)C[C@H](C(=O)NCCOCCOCCOCCOCCOCCC(=O)N[C@@H]2C[C@H](NC(C)(C)C)CC[C@@H]2N2CC[C@H](Nc3ncnc4ccc(C(F)(F)F)cc34)C2=O)[C@H]1c1cccnc1 [Example 37]; 12.6
CC(C)N(C)[C@@H]1CC[C@H](N2CC[C@H](Nc3ncnc4ccc(C(F)(F)F)cc34)C2=O)[C@H](NC(=O)CCCCCCCCC(=O)NCCCCCCNC(=O)[C@H]2CC(=O)N(C)[C@@H]2c2cccnc2)C1 [Example 166]; 0.501
CC(C)N(C)[C@@H]1CC[C@H](N2CC[C@H](Nc3ncnc4ccc(C(F)(F)F)cc34)C2=O)[C@H](NC(=O)CCOCCOCCOCCOCCOCCOCCNC(=O)[C@H]2CC(=O)N(C)[C@@H]2c2cccnc2)C1 [Example 41]; 2
CC(C)N(C)[C@@H]1CC[C@H](N2CC[C@H](Nc3ncnc4ccc(C(F)(F)F)cc34)C2=O)[C@H](NC(=O)CCOCCOCCOCCOCCNC(=O)[C@H]2CC(=O)N(C)[C@@H]2c2cccnc2)C1 [Example 39]; 15.8
CN1C(=O)C[C@H](C(=O)NCCOCCOCCOCCOCCOCCOCCC(=O)N[C@@H]2C[C@H](NC(C)(C)C)CC[C@@H]2N2CC[C@H](Nc3ncnc4ccc(C(F)(F)F)cc34)C2=O)[C@H]1c1cccnc1 [Example 38]; 2.51
CC(C)N(C)[C@@H]1CC[C@H](N2CC[C@H](Nc3ncnc4ccc(C(F)(F)F)cc34)C2=O)[C@H](NC2CCN(C(=O)CCOCCOCCOCCOCCNC(=O)[C@H]3CC(=O)N(C)[C@@H]3c3cccnc3)CC2)C1 [Example 69]; 0.316

* * *

target: anti-cotinine antibody (SEQ ID NO: 11/12, rabbit variable region with human IgG1 Fc DE mutation); experiment: SPR binding of anti-cotinine antibody to ARM compounds, Biacore T200, 37° C. (Example 202); settings: SPR Biacore T200, 37° C., pH 7.4, antibody SEQ ID NO: 11/12 captured on protein A; Kd in molar
Measured pKd of Antibody for ARM Compound of Formula (I) by item
QUANTITY MEASURED: pKd of Antibody for ARM Compound of Formula (I)

CN1C(=O)C[C@H](C(=O)NCCOCCOCCOCCC(=O)N[C@H]2CC[C@H](C(=O)N[C@@H]3C[C@H](NC(C)(C)C)CC[C@@H]3N3CC[C@H](Nc4ncnc5ccc(C(F)(F)F)cc45)C3=O)CC2)[C@H]1c1cccnc1 [Example 31]; 9.3015
CC(C)N(C)[C@@H]1CC[C@H](N2CC[C@H](Nc3ncnc4ccc(C(F)(F)F)cc34)C2=O)[C@H](NC(=O)[C@H]2CC[C@H](NC(=O)CCCOCCCCOCCNC(=O)[C@H]3CC(=O)N(C)[C@@H]3c3cccnc3)CC2)C1 [Example 121]; 9.332
CC(C)N(C)[C@@H]1CCC(N2CC[C@H](Nc3ncnc4ccc(C(F)(F)F)cc34)C2=O)[C@H](NC(=O)CCOCCOCCOCCOCCOCCOCCOCCOCCNC(=O)[C@H]2CC(=O)N(C)[C@@H]2c2cccnc2)C1 (stereo partly shown) [Example 42]; 9.23
CC(C)N(C)[C@@H]1CC[C@H](N2CC[C@H](Nc3ncnc4ccc(C(F)(F)F)cc34)C2=O)[C@H](NC(=O)[C@H]2C[C@@H](NC(=O)CCOCCOCCNC(=O)CNC(=O)[C@H]3CC(=O)N(C)[C@@H]3c3cccnc3)C2)C1 [Example 66]; 8.649
CC(C)N(C)[C@@H]1CC[C@H](N2CC[C@H](Nc3ncnc4ccc(C(F)(F)F)cc34)C2=O)[C@H](NC(=O)COCCNC(=O)COCCNC(=O)CCOCCNC(=O)[C@H]2CC(=O)N(C)[C@@H]2c2cccnc2)C1 [Example 151]; 9.0755
CC(C)N(C)[C@@H]1CC[C@H](N2CC[C@H](Nc3ncnc4ccc(C(F)(F)F)cc34)C2=O)[C@H](NC2CCN(C(=O)CCOCCOCCOCCOCCNC(=O)[C@H]3CC(=O)N(C)[C@@H]3c3cccnc3)CC2)C1 [Example 69]; 9.321
CC(C)N(C)[C@@H]1CC[C@H](N2CC[C@H](Nc3ncnc4ccc(C(F)(F)F)cc34)C2=O)[C@H](NC(=O)C2CCC(NC(=O)CCOCCNC(=O)CCOCCNC(=O)[C@H]3CC(=O)N(C)[C@@H]3c3cccnc3)CC2)C1 (stereo partly shown) [Example 48]; 8.975
CC(C)N(C)[C@@H]1CC[C@H](N2CC[C@H](Nc3ncnc4ccc(C(F)(F)F)cc34)C2=O)[C@H](NC(=O)[C@H]2CC[C@H](CNC(=O)CCCC(=O)NCCCOCCCNC(=O)[C@H]3CC(=O)N(C)[C@@H]3c3cccnc3)CC2)C1 [Example 20]; 8.8705
CC(C)N(C)[C@@H]1CC[C@H](N2CC[C@H](Nc3ncnc4ccc(C(F)(F)F)cc34)C2=O)[C@H](NC(=O)CCOCCOCCOCCOCCOCCNC(=O)[C@H]2CC(=O)N(C)[C@@H]2c2cccnc2)C1 [Example 40]; 9.4525
CN1C(=O)C[C@H](C(=O)NCCO[C@H]2CC[C@H](OCCCC(=O)N[C@H]3CC[C@H](C(=O)N[C@@H]4C[C@H](NC(C)(C)C)CC[C@@H]4N4CC[C@H](Nc5ncnc6ccc(C(F)(F)F)cc56)C4=O)CC3)CC2)[C@H]1c1cccnc1 [Example 10]; 9.199
CC(C)N(C)[C@@H]1CC[C@H](N2CC[C@H](Nc3ncnc4ccc(C(F)(F)F)cc34)C2=O)[C@H](NC(=O)COCCNC(=O)CCNC(=O)CCOCCOCCNC(=O)[C@H]2CC(=O)N(C)[C@@H]2c2cccnc2)C1 [Example 181]; 9.1645
CC(C)N(C)[C@@H]1CC[C@H](N2CC[C@H](Nc3ncnc4ccc(C(F)(F)F)cc34)C2=O)[C@H](NC(=O)[C@H]2CC[C@H](NC(=O)CCCO[C@H]3CC[C@H](OCCNC(=O)[C@H]4CC(=O)N(C)[C@@H]4c4cccnc4)CC3)CC2)C1 [Example 1]; 9.654
CN1C(=O)C[C@H](C(=O)NCCO[C@H]2CC[C@@H](OCCCC(=O)N[C@H]3CC[C@H](C(=O)N[C@@H]4C[C@H](NC(C)(C)C)CC[C@@H]4N4CC[C@H](Nc5ncnc6ccc(C(F)(F)F)cc56)C4=O)CC3)CC2)[C@H]1c1cccnc1 [Example 2]; 9.4775
CC(C)N(C)[C@@H]1CC[C@H](N2CC[C@H](Nc3ncnc4ccc(C(F)(F)F)cc34)C2=O)[C@H](NC(=O)[C@H]2CC[C@@H](NC(=O)CCOCCNC(=O)CCCCNC(=O)[C@H]3CC(=O)N(C)[C@@H]3c3cccnc3)CC2)C1 [Example 198]; 9.3835
CC(C)N(C)[C@@H]1CC[C@H](N2CC[C@H](Nc3ncnc4ccc(C(F)(F)F)cc34)C2=O)[C@H](NC(=O)CCOCCOCCOCCNc2c(NCCNC(=O)[C@H]3CC(=O)N(C)[C@@H]3c3cccnc3)c(=O)c2=O)C1 [Example 168]; 9.06
CC(C)N(C)[C@@H]1CC[C@H](N2CC[C@H](Nc3ncnc4ccc(C(F)(F)F)cc34)C2=O)[C@H](NC(=O)C2CCN(C3CCN(C(=O)CCCCCCCCCNC(=O)[C@@H]4CC(=O)N(C)[C@H]4c4cccnc4)CC3)CC2)C1 [Example 157]; 10.135
